# study.system: T1, biotinylated recombinant human trimeric ARG2 enzyme (Avi-huARG2-His10) (human, UniProt P78540 23-354, biotinylated)
# T1 construct: also called avi-Arg2-His10; bio-ARG2
# T1 chain: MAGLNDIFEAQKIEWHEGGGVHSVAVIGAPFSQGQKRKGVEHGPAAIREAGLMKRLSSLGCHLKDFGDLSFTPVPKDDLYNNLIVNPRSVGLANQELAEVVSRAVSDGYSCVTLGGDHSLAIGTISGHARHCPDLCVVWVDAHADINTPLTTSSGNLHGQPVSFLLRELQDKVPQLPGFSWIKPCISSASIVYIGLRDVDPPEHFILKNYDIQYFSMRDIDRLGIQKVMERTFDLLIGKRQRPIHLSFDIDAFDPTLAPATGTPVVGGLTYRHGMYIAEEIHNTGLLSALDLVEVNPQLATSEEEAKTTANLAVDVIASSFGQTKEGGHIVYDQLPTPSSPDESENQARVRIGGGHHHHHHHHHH
# assay.name: HTRF epitope competition, scFv titrated, competitor C0020187 IgG, on biotinylated human trimeric ARG2
property: pIC50
Units for pIC50: none; it is -log10 of a concentration expressed in mol/L.

Q) Requested read-out: pIC50. Entry: C0021096 scFv (scFv, V domains shown, scFv) VH: EVQLLESGGGLVQPGGSLRLSCAASGFTFSSYAMSWVRQAPGKGLEWVSAISGYSGYYADSVKGRFTISRDNSKNTLYLQMNSLRAEDTAVYYCARLRADLGLYMDLWGRGTLVTVSS VL: QSVLTQPPSVSAAPGQKVTISCSGSSSNIGNHYVSWYQQLPGTAPKLLIYNTERRMSGIPDRFSGSKSGTSATLGITGLQTGDEADYYCGTWDSSLSALVFGGGTKLTVL
A) 7.45

Q) Requested read-out: pIC50. Entry: C0021061 scFv (scFv, V domains shown, scFv) VH: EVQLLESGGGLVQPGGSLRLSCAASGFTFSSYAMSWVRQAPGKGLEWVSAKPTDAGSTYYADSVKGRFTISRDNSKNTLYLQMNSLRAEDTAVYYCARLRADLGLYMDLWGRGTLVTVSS VL: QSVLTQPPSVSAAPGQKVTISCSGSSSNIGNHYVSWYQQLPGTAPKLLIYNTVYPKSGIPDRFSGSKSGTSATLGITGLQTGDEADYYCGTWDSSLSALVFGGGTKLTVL
A) 7.00
